Consider the following substances; for each one, report its Avg LDL, normalized to pre-treatment and control.
- Tested on: ANGPTL3 gene
- assay_remarks: Example 4: serum LDL in mice
- Format: in vivo, C57bl/6 mice
- experimental_setup: Day 15; 1.0 mg/kg single SC injection on day 1; serum; n=3
In the oligonucleotide strings, read from the 5' end, every base follows the letter of its sugar. An asterisk marks phosphorothioate; unmarked linkages are phosphodiester. Other units and linkages are bracketed, terminal groups are in braces. A string of capitals states the bases alone. {NAG37} = tridentate N-acetyl-galactosamine targeting ligand, structure (NAG37)s; [invAb] = inverted abasic unit; m = 2'-O-methyl; f = 2'-fluoro
When you answer, write just the number.

Hi! What's the reported Avg LDL, normalized to pre-treatment and control for AD05488: RNAi agent duplex: antisense AM07235-AS, sense AM07234-SS (antisense mU*fA*mC*fUmGfAmUfCmAfAmAfUmAfUmGfUmUfGmAfG*mC; sense {NAG37}*[invAb]*mGmCmUmCmAmAmCmAfUfAfUmUmUmGmAmUmCmAmGmUmA*[invAb]) on ANGPTL3 gene? 0.714

Can you handle AD05308: RNAi agent duplex: antisense AM07003-AS, sense AM07002-SS (chain 1 mU*fG*mU*fUmGfAmAfUmUfAmAfUmGfUmCfCmAfUmGfG*mA; chain 2 {NAG37}*[invAb]*mUmCmCmAmUmGmGmAfCfAfUmUmAmAmUmUmCmAmAmCmA*[invAb]) next? 0.688

Can you handle AD05418: RNAi agent duplex: antisense AM07159-AS, sense AM07158-SS (antisense mU*fU*mU*fGmAfAmUfUmAfAmUfGmUfCmCfAmUfGmGfG*mU; sense {NAG37}*[invAb]*mAmCmCmCmAmUmGmGfAfCfAmUmUmAmAmUmUmCmAmAmA*[invAb]) next? 0.841

Can you handle AD05487: RNAi agent duplex: antisense AM07233-AS, sense AM07232-SS (antisense mU*fA*mC*fUmGfAmUfCmAfAmAfUmAfUmGfUmUfGmAfG*mU; sense {NAG37}*[invAb]*mAmCmUmCmAmAmCmAfUfAfUmUmUmGmAmUmCmAmGmUmA*[invAb]) next? 1.125

---

- Test system: ANGPTL3 protein
- assay_remarks: Example 7: serum ANGPTL3 protein by ELISA in mice
- Assay type: in vivo, C57bl/6 mice
- Parameters: key: ratio: (level/pre-treatment day -1 level) ÷ mean of D5W control group
- experimental_setup: Day 22, 0.5 mg/kg single SC injection on day 1, n=3
In the oligonucleotide strings, read from the 5' end, every base follows the letter of its sugar. An asterisk marks phosphorothioate; unmarked linkages are phosphodiester. Other units and linkages are bracketed, terminal groups are in braces. A string of capitals states the bases alone. {NAG37} = tridentate N-acetyl-galactosamine targeting ligand, structure (NAG37)s; [invAb] = inverted abasic unit; m = 2'-O-methyl; f = 2'-fluoro
property_measured: Avg ANGPTL3, normalized to pre-treatment and control
When you answer, write just the number.

Item AD05418: RNAi agent duplex: antisense AM07159-AS, sense AM07158-SS (antisense mU*fU*mU*fGmAfAmUfUmAfAmUfGmUfCmCfAmUfGmGfG*mU; sense {NAG37}*[invAb]*mAmCmCmCmAmUmGmGfAfCfAmUmUmAmAmUmUmCmAmAmA*[invAb]) has what recorded Avg ANGPTL3, normalized to pre-treatment and control? 0.639

Can you handle AD05775: RNAi agent duplex: antisense AM07235-AS, sense AM07608-SS (antisense UACUGAUCAAAUAUGUUGAGC; sense GCUCAACAUNUUUGAUCAGUA; (NAG37)s GalNAc ligand; RNAi agent antisense strand modified sequence; RNAi agent sense strand modified sequence; modified_base 10 n = 2′-O-methyl-2-aminoadenosine-3′-phosphate) next? 0.218
